biological target: PfThrRS (Plasmodium falciparum, UniProt Q8IIA4); construct: made in house; host or cells: E. coli BL21(DE3); assay: In vitro PfThrRS inhibition assay (aminoacylation activity, ATP consumption by Kinase-Glo luminescence); type: biochemical; settings: Table SI1, adenosine binding subsite substituent
Sequence (Q8IIA4 21-1013): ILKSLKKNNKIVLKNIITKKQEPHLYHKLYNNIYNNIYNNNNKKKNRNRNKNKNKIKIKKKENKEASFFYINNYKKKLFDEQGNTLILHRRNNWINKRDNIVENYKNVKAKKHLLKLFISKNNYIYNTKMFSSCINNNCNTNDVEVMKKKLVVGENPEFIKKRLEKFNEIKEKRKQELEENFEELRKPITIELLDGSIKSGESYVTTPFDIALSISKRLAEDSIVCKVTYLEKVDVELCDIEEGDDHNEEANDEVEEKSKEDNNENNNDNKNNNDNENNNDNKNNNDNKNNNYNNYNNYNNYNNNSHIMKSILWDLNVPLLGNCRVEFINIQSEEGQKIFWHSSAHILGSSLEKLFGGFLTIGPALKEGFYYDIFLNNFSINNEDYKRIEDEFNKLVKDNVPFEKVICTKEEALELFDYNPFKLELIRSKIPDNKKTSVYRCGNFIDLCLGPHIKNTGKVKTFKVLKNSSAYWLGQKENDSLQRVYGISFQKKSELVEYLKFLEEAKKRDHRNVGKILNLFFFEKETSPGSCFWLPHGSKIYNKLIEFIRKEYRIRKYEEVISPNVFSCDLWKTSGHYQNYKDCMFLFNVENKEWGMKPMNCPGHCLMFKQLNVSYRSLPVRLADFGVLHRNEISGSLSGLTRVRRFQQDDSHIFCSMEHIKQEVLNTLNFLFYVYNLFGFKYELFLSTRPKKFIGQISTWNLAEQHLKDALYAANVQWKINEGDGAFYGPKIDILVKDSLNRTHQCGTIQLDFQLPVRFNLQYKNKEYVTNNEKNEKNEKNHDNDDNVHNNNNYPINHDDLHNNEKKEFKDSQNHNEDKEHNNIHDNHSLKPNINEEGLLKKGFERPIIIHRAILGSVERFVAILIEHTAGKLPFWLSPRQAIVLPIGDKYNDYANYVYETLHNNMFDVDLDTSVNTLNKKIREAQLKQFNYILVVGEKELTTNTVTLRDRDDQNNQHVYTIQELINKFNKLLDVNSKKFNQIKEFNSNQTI
Listed below: IC50 values for each entry.
The figure you give is taken to be in µM; do not add the unit.

O=C(O)c1cc(S(=O)(=O)Nc2ccc(Br)cc2)ccc1O; 32

For O=C(O)c1cc(S(=O)(=O)Nc2ccccc2)ccc1O , what is its reported IC50?
13.1

How about O=C(O)c1cc(S(=O)(=O)Nc2cccc(Cl)c2)ccc1O ?
76

How about Cc1ccc(NS(=O)(=O)c2ccc(O)c(C(=O)O)c2)cc1 ?
67

How about CCCCc1ccc(NS(=O)(=O)c2ccc(O)c(C(=O)O)c2)cc1 ?
31

How about O=C(O)c1cc(S(=O)(=O)Nc2ccc3oc(=O)sc3c2)ccc1O ?
89

How about O=C(O)c1cc(S(=O)(=O)Nc2ccc(Cc3ccccc3)cc2)ccc1O ?
55

How about COc1cccc(-c2cccc(NS(=O)(=O)c3ccc(O)c(C(=O)O)c3)c2)c1 ?
46

How about O=C(O)c1cc(S(=O)(=O)Nc2cc(Cl)ccc2Oc2ccccc2)ccc1O ?
32

How about O=C(Nc1cccc(C(F)(F)F)c1)c1cccc(NS(=O)(=O)c2ccc(O)c(C(=O)O)c2)c1 ?
31

How about O=C(O)c1cc(S(=O)(=O)Nc2ccc(I)cc2)ccc1O ?
46

How about O=C(O)c1cc(S(=O)(=O)Nc2cccc3ccccc23)ccc1O ?
84
